measurement-type: melting point

Some solved cases for reference:
• CCCCCCCCCCCC1NC(=O)CC(C(=O)O)N1C(=O)CCCCC (stereo not shown) = 106 to 107 °C
• CCCCCCCCCCCC(=O)N1C(CCCCCCCCCCC)NC(=O)CC1C(=O)O (stereo not shown) = 110 to 112 °C
• CCCCCCCCCCCCCCCCCC1NC(=O)CC(C(=O)O)N1C(=O)CCCCCCCCCCC (stereo not shown) = 104 to 107 °C
• CCCCCCCCCCCC(=O)N1C(CCCCC)NC(=O)CC1C(=O)O (stereo not shown) = 118 to 120 °C
• CCCCCCCCCCCCCCCCCC(=O)N1C(CCCCCCCCCCC)NC(=O)CC1C(=O)O (stereo not shown) = 105 to 109 °C

Look up melting point: CCCCCCCCCCCCCCCCCC(=O)N1C(CCCCCCCCCCCCCCCCC)NC(=O)CC1C(=O)O (stereo not shown)
107 to 111 °C

Look up melting point for this molecule: CCCCCC(=O)N1C(CCCCC)NC(=O)CC1C(=O)O (stereo not shown)
55 to 56 °C
